- tested-on: T1, T9 (Tn-MUC1) (PAPGSTAPPAHGVT(α-GalNAc)S(α-GalNAc)APDTRPAPG-OH)
- T1 peptide: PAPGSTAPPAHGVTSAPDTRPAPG
- experiment: glycopeptide array
value-type: EC50 (µg/mL)
Dear colleague, please return just the value in µg/mL, with no unit written.

Prompt: Provide one value: measured EC50 of 17 (antibody, V domains shown) VH: QVQLVQSGAEVKKPGASVRVSCKASGYPFINYYIQWVRQAPGQGLEWMGVVNPYDGSTNYAQKFQGRVSITRDASTSTVFMELNSLRSEDTAVYYCARDSMLGHVIFDFWGQGTLVTVSS
Completion: 0.102

Prompt: Provide one value: measured EC50 of 198 (antibody, V domains shown) VH: QVQLVQSGAEVKKPGASVKVSCKASGYTFINNYIQWVRQAPGQGLEWMGVINPYDGSIHYAQKFQGRVTLTRDTSTTTVYMELSSLRSEDTAVYYCARDYMIGYVVFEYWGQGTLVTVSS
Completion: 0.121

Prompt: Provide one value: measured EC50 of 158 (antibody, V domains shown) VH: QVQLVQSGAEVKKPGASVKVSCKASGYTFTSYYMHWVRQAPGQGLEWMGVINPFDGSTNYAQKFQGRVTVTRDTATTTVFMDLSSLRSEDTAVYYCARDNMLGYVLFDYWGQGTLVTVSS
Completion: 0.088

Prompt: Provide one value: measured EC50 of 25 (antibody, V domains shown) VH: QVQLVESGAEVKKPGASVKVSCKASGYTFARYYVHWVRQAPGQGLEWMGLINPYGGATNYAQNFQGRVTMTRDTSTSTVYMELSSLRSEDTAVYYCARDAMGGDSYFDYWGQGTLVTVSS
Completion: 0.119

Prompt: Provide one value: measured EC50 of 202 (antibody, V domains shown) VH: QVQLVQSGAEVKNPGASVKFSCKASGYTFINYYLQWLRQAPGQGLEWMGTINPFDGSTSYAQNFQGRVTMTRDTSSTTVYMELNSLKSEDTAVYYCARDSMIGYVLFDSWGQGTLVTVSS
Completion: 0.119

Prompt: Provide one value: measured EC50 of 53 (antibody, V domains shown) VH: QVQLVQSGAEVKKPGASMTVSCKTSGYTFISYYIHWLRQAPGQGLEWLGVINPFGGATNYAQKFQGRVTMTRDTSTITVYMELSSLRSEDTAVYYCARDAMGGDSHFDFWGQGTLVTVSS
Completion: 0.126

Prompt: Provide one value: measured EC50 of 142 (antibody, V domains shown) VH: QVQLVQSGAEVKKPGASVMLSCKASGYIFTSYYIQWVRQAPGQGLEWMGVVNPYDGSTNYAQKFQGRVSITRDTSTSTVFMELNSLRSEDTAVYYCARDSMLGHVIFDFWGQGTLVTVSS
Completion: 0.091

Prompt: Provide one value: measured EC50 of 70 (antibody, V domains shown) VH: QVQLVQSGAEVKKPGASVKVSCKASGYAFPNYYIHWVRQAPGQGLEWMGVINPYGGSTNYAQKFQGRVTMTRGTSTSTVYLELSSLRSEDTAVYYCARDAMKGDSFFDYWGQGTLVTVSS
Completion: 0.151

Prompt: Provide one value: measured EC50 of 37 (antibody, V domains shown) VH: QVQLVQSGAEVKKPGASVTVSCKTSGYTFTSYYIHWLRQAPGQGLEWMGVINPFGGATNYAQKFQGRVTMTRDTSTITVYMELSSLRSEDTAVYYCARDAMGGDSHFDHWGRGTLVTVSS
Completion: 0.13

Prompt: Provide one value: measured EC50 of 162 (antibody, V domains shown) VH: QVQLVQSGAEVKKPGASVMLSCKASGYIFTSYYIQWVRQAPGQGLEWMGVVNPYDGSTNYAQKFQGRVTITRDTSTSTVFMELSSLRSEDTAVYYCARDNMLGHVIFDFWGQGTLVTVSS
Completion: 0.037

Prompt: Provide one value: measured EC50 of 166 (antibody, V domains shown) VH: QVQLVESGAEVKKPGASVKVSCKASGYTFNRYYIHWVRQAPGQGLEWMGVINPSDGSTNYAQKFRGRITMTRDTSTNIVYMELSSLRSEDTAVYFCARDAMGGDSYFDNWGQGTLVTVSS
Completion: 0.095

Prompt: Provide one value: measured EC50 of 98 (antibody, V domains shown) VH: QVQLVQSGAEVKKPGASVKVSCKASGYTFTSYYIQWLRQAPGQGLEWMGVINPTGGATNYAQKFQGRVTMTRETSTSMVHMELSSLRSEDTAVYYCARDYMRGYVVFDYWGQGTLVTVSS
Completion: 0.102

Prompt: Provide one value: measured EC50 of 82 (antibody, V domains shown) VH: QVQLVQSGAEVKKPGASVKVSCKASGYTFTSYYIHWVRQAPGQGLEWMGVINPYDSSTNYAQKFQGRVTMTRDTSTSTVFMDLSSLRSEDTAVYYCARDNMIGYVLFDYWGQGTLVTVSS
Completion: 0.167

Prompt: Provide one value: measured EC50 of 186 (antibody, V domains shown) VH: QVQLVQSGAEVKKPGASVKVSCKASGYTFNRYYIHWVRQAPGQGLEWMGVINPYDGSTNYAQKFRGRITMTRDTSTNTVYMDLSSLRSEDTAVYFCARDAMEGDSYLDNWGRGTLVTVSS
Completion: 0.132

Prompt: Provide one value: measured EC50 of 182 (antibody, V domains shown) VH: QVQLVQSGAEVKKPGASVKVSCKASGYSFTYSYIQWVRLAPGRGLEWMGVINPYDGSTDYAQKFQGRVTLTRDTSTTTVYMELSSLTSEDTAVYYCARDFMIGYVVFDYWGQGTLVTVSS
Completion: 0.085
